experiment: loss of swimming-algae plug formation – whole organism, Chlamydomonas reinhardtii, WT vs cilia-less mutant, absorbance, 96-well, primary screen (AID 463189); conditions: Chlamydomonas reinhardtii gravitaxis, OD600 absorbance, 2 days; at 10 µM; stronger effect = higher value;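 further: 0% = wild type cc124 cells in DMSO and 100% = ciliumless bld1 mutant cells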
Reported inhibition is given for each of the following compounds.
Expressed in %, but write only the number.

Example compounds with recorded inhibition:
COMPOUND	REPORTED ENDPOINT	QUANTITY UNIT	EXPERIMENTAL RESULT
CC(C)(C=O)Cc1cc(C(C)(C)C)c(O)c(C(C)(C)C)c1	inhibition	%	-3.35
CC1COc2c(N3CCN(C)CC3)c(F)cc3c(=O)c(C(=O)O)cn1c23 (stereo unspecified)	inhibition	%	6.49
CC(=O)O[C@@]12CO[C@@H]1C[C@H](O)[C@@]1(C)C(=O)[C@H](O)C3=C(C)[C@@H](OC(=O)[C@H](O)[C@@H](NC(=O)OC(C)(C)C)c4ccccc4)C[C@](O)([C@@H](OC(=O)c4ccccc4)[C@H]21)C3(C)C	inhibition	%	22.5
NNCCc1ccccc1	inhibition	%	3.74

Q: Fill in: inhibition of COc1ccc(C(=O)C2CCCCC2=O)cc1 (stereo unspecified) is ___
A: 20

Q: And for NS(=O)(=O)c1cc2c(cc1Cl)NC(C1CC3C=CC1C3)NS2(=O)=O (stereo unspecified) ?
A: -0.288

Q: Request: C1CNCCNCCCNCCNC1
A: -15.9

Q: Please answer likewise for O=C1O/C(=C/Br)CCC1c1cccc2ccccc12 (stereo unspecified)
A: -0.58

Q: One more compound: O=c1[nH]ccc2c(O)cccc12
A: 3.93

Q: Lookup COc1ccccc1NC(=O)Nc1nc(-c2cccnc2)nc2ccccc12
A: -0.831

Q: Entry to check: Cc1cc(C)c(NC(=O)C[C@H](CC(=O)O)c2cccc3ccccc23)c(C(=O)N2CCC3(CCCC3)CC2)c1
A: 13.6

----------
experiment: Primary imaging screen for DUSP6 inhibitors that restore phospho-Erk in transfected HeLa cells, chemical complementation (AID 609); conditions: HeLa MKP-3 transfected, phospho-Erk imaging KS statistic; measured here: nuclear pErk red intensity z-score; at 10 µM; stronger effect = higher value; cells stimulated with TPA for 15 min
REPORTED ENDPOINT: z-score

> print(dat)
                                   compound  reported.endpoint  experimental.result
1                 CC1(C)CC(=O)C(C=N)=C(O)C1            z-score                0.177
2  COc1ccc(CCN(C)CCCC(C#N)(c2ccc(OC)c(OC)c2)C(C)C)cc1OC (stereo not given)            z-score               -0.441
3  CC1(C)O[C@@H]2C[C@H]3[C@@H]4CCC5=CC(=O)C=C[C@]5(C)[C@@]4(F)[C@@H](O)C[C@]3(C)[C@]2(C(=O)CO)O1            z-score               -0.313
4       O=C(Oc1ccccc1)c1c(Cl)cccc1P(=O)(O)O            z-score                -1.03

Please turn your attention to the following entry.
Q: Reported z-score for O=C(NCCO)C1(c2ccccc2)CCCC1 : what is it?
A: -1.5
